test system: UO-31 renal; assay: NCI-60 one-dose screen, 48 h; details: 10 µM
The panel holds about 83,000 compounds, 20% with a hit somewhere; the sample as a whole holds those more often. Active and inactive are the calls of the source. Rule for the calls: active = growth percent below 10; inactive = the rest.
Would you mind answering with one of these outcomes? active, inactive

test smiles | assigned class
CCN1CCN(Cc2ccc(C(=O)Nc3cccc(-c4cn(-c5ccc6oc(=O)ccc6c5)nn4)c3)cc2C(F)(F)F)CC1 | active
CN(CCF)c1ccc(/C=C/C(=O)c2ccc(N)cc2O)cc1 | inactive
O=C(CNc1nc(-c2ccccc2)cs1)Nc1ccc([N+](=O)[O-])cc1 | active
Nc1cccnc1/C=N/NC(=S)NCCNC(=O)c1ccc(-n2nc(-c3ccccc3O)nc2-c2ccccc2O)cc1 | active

Field: next molecule
Look up the recorded call for "COc1ccc2c3nc4cc(C)c(C)cc4nc3n(CCN(C)C)c2c1" in this test.
active

====

test system: HCT-116 colon; test: NCI-60 one-dose screen, 48 h; settings: 10 µM
The panel holds about 83,000 compounds, 20% with a hit somewhere; the sample as a whole holds those more often. Calls of active or inactive are those of the source. The calls were made as follows: active = growth percent below 10; inactive = the rest.
Would you mind answering with one of these outcomes? active, inactive

See these solved cases before continuing.
compound | assigned class
CCC(C)S(=O)(=O)c1oc(-c2ccc(C)cc2)nc1S(=O)(=O)c1ccccc1 (centres undefined) | active
N#Cc1ccc(NC(=O)CSc2ccc(-c3ccc(Br)cc3)nn2)cc1 | inactive
O=c1[nH]c2ccccc2cc1CSc1ccc(Nc2nccc(-c3ccc(Cl)cc3)n2)cc1 | active
Cn1cc(/C=N/Nc2ccnc3cc(Cl)ccc23)c2ccccc21 | active

Look up the recorded call for "N#Cc1ccc(-c2nn(-c3ccc(C(=O)O)cc3)cc2CNc2ccc(Oc3ccccc3)cc2)cc1" in this test.
inactive

Look up the recorded call for "CC(=O)c1cc(C(=O)N2c3ccccc3Sc3ccccc32)n2ccc(C)cc12" in this test.
active

Look up the recorded call for "Cc1ccc(C(=O)NCCCNc2nc(Nc3ccc(N4CCN(C)CC4)cc3)nc3ccsc23)cc1" in this test.
active

Look up the recorded call for "Nc1n[nH]c2cccc(C#Cc3cccc(NC(=O)Nc4cc(C(F)(F)F)cc(C(F)(F)F)c4)c3)c12" in this test.
active

Look up the recorded call for "COc1ccc(C(=O)CSc2nnc(-c3c[nH]c4ccccc34)n2-c2ccccc2)cc1" in this test.
inactive

====

Could you please report measured growth for the items listed next?
system: SNB-19 CNS; experiment: NCI-60 one-dose screen, 48 h (100 = growth as untreated, 0 = no growth, -100 = all killed); settings: 10 µM
Compounds without any hit were thinned out: in the full panel of roughly 83,000, 20% have a hit.
Answers are plain numbers, in %.

Consider the worked cases shown below.
molecule | units of measure | growth
O=C(c1ccc(Cl)cc1)C1[C@H](c2ccc(Br)cc2)[C@@H](c2ccccc2)NC12C(=O)Nc1ccc(Br)cc12 (stereo partly drawn) | % | -51
CC1(C)[C@@H](NCO)CC[C@]2(C)[C@H]3C(=O)C=C4[C@@H]5C[C@](C)(CO)CC[C@]5(C)CC[C@@]4(C)[C@]3(C)CC[C@@H]12 | % | 70.1
O=C(CSc1ccc(-c2ccc(Cl)cc2)nn1)Nc1ccc(Cl)c(C(F)(F)F)c1 | % | 71.9
Cc1cccc2cc(-c3cc(-c4ccccc4)nc(=S)[nH]3)c(Cl)nc12 | % | 82.2
Cc1cc(C)nc(SCC(=O)Nc2ccc(S(N)(=O)=O)cc2)n1 | % | 94.1
Clc1ccc(/C=N/Nc2ncnc3sc4c(c23)CCN(Cc2ccccc2)C4)cc1 | % | 18.4

Would you mind giving growth for every molecule in the list below?
1. O=C(O)CCCCCCCCCCN1C(=O)/C(=C/c2cnc(-c3ccc(Cl)cc3)s2)SC1=S
2. CCOc1ccc(Nc2nc3ccccc3nc2Nc2ccc(OCC)cc2)cc1
3. COC(=O)c1c(C(=O)OC)c2n(c1C)[C@@H]([C@@H](C)[C@H]1CC[C@H]3[C@@H]4CCC5=CC(=O)CC[C@]5(C)[C@H]4CC[C@]13C)SC2
4. CC(C)C1=C[C@@]23CC[C@@H]4[C@](C)(CCC[C@]4(C)C(=O)NCc4ccccc4)[C@H]2C[C@@H]1[C@H]1C(=O)CCC(=O)[C@H]13
5. Cc1ccc(-c2nc3ccc(C(=O)N=Nc4c(O)[nH]c5ccc(Cl)cc45)cc3[nH]2)cc1
6. O=C(NO)c1ccc(Cn2ccc3c(NCc4ccccc4)ncnc32)cc1
7. CNC(=O)c1cc(-c2ccc(NC(=O)Nc3ccc(C)cc3)cc2)nc2cccnc12
8. O=C(CSc1nnc(-c2c[nH]c3ccccc23)n1-c1ccccc1)c1ccc(Br)cc1

1: 27.1; 2: 39.7; 3: 54.2; 4: 83.2; 5: -24; 6: -7.76; 7: 91.7; 8: 70.2

Would you mind giving growth for every molecule in the list below?
1. N#Cc1ccc(-c2nn(-c3ccc(C(=O)O)cc3)cc2CNc2cccc(Br)c2)cc1
2. CN1CCN(c2ccc(Nc3nc(NCCCNC(=O)c4ccc(Cl)cc4)c4sccc4n3)cc2)CC1
3. O=C(CN1CCN(c2ncnc3c2cnn3-c2ccccc2)CC1)Nc1nncs1
4. Cn1cc(-c2cc(N)n3nc(-c4c[nH]c5ccc(Br)cc45)cc3n2)c2cccnc21

51.7
104
58.4
-83.5
